target-or-system: EGFR L858R/T790M/C797S mutant kinase (Homo sapiens (Human), UniProt P00533, C797S/L858R/T790M)
Sequence (P00533 25-1210 T790M/C797S/L858R): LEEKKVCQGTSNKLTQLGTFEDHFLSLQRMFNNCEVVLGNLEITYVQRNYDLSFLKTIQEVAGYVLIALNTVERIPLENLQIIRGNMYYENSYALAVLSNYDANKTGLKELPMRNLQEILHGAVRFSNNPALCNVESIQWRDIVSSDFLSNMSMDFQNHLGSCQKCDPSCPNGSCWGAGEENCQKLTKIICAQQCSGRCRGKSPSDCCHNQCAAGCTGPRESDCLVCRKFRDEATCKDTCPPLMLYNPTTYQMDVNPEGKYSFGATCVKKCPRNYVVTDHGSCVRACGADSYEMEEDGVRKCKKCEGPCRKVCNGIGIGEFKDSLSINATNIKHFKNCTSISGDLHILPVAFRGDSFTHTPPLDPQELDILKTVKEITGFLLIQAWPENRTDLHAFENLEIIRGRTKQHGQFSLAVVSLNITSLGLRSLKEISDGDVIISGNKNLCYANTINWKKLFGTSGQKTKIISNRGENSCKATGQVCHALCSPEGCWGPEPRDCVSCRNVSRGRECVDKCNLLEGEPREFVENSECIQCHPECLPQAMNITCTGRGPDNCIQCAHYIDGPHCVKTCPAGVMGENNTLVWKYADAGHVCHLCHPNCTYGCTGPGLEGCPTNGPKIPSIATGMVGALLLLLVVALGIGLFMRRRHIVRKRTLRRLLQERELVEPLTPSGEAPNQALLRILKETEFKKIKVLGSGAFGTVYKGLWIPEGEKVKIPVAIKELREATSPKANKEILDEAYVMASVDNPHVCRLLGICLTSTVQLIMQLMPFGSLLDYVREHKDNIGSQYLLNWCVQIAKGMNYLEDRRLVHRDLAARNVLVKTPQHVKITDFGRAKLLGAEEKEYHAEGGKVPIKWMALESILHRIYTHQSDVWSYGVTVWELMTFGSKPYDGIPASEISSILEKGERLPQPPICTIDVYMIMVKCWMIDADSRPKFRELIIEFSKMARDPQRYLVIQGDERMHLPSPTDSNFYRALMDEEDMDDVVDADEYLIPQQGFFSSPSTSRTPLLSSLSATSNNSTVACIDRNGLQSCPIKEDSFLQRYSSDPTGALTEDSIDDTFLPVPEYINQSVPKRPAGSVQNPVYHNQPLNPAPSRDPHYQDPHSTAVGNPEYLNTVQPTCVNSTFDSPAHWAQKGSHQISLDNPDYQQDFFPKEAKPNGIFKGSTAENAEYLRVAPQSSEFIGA
test-details: HTRF kinase assay, EGFR L858R/T790M/C797S mutant kinase
condition-description: 120 minutes at room temperature
# reported IC50; entries follow
Give the quantity in nM, number only.

Below, 5 molecules whose answers are already recorded.
>  <molecule>
COCC1(Cn2cc(-c3nccc(Nc4cc5c(C(C)C)ccc(N6C[C@H](CS(C)(=O)=O)[C@H]6C)c5cn4)n3)cn2)CC1 [Example 66]

>  <unit-name>
nM

>  <IC50>
0.17

$$$$
>  <molecule>
CC(C)c1ccc(N2CC(CS(C)(=O)=O)C2)c2cnc(Nc3ccnc(-c4cnn(S(=O)(=O)C5CC5)c4)n3)cc12 [Example 1]

>  <unit-name>
nM

>  <IC50>
0.51

$$$$
>  <molecule>
CC(C)c1ccc(N2C[C@H](CS(C)(=O)=O)[C@H]2C)c2cnc(Nc3ccnc(-c4cnn(CC5(C#N)CC5)c4)n3)cc12 [Example 19]

>  <unit-name>
nM

>  <IC50>
1

$$$$
>  <molecule>
CC(C)c1ccc(N2C[C@H](CS(C)(=O)=O)[C@H]2C)c2cnc(Nc3ccnc(-c4cnn(C5CC5)c4)n3)cc12 [Example 15]

>  <unit-name>
nM

>  <IC50>
1.9

$$$$
>  <molecule>
CC(C)c1ccc(N2C[C@H](CS(C)(=O)=O)[C@H]2C)c2cnc(Nc3ccnc(-c4cnn(C5CCN(C)CC5)c4)n3)cc12 [Example 14]

>  <unit-name>
nM

>  <IC50>
0.73

$$$$

Kindly review the next molecule as well.
Data request: I am curious: what IC50 value has been reported for CC(C)c1ccc(N2C[C@H](CS(C)(=O)=O)[C@H]2C)c2cnc(Nc3ccnc(-c4cnn(C5COC5)c4)n3)cc12 [Example 20] ?
Data returned: 0.92

====

Tested on: Ba/F3 EGFR Del19/C797S cells
test-details: Cell proliferation inhibition assay (Cell Titer-Glo), Ba/F3 EGFR Del19/C797S
Assay type: cell-based
condition-description: 72 hours, read-out: Ba/F3 EGFR Del19_C797S IC50
assay-metric: pIC50
On this scale, pIC50 is minus log10 of a concentration expressed in M (mol/L).

>  <structure-as-smiles>
CC#CCn1cc(-c2nccc(Nc3cc4c(C(C)C)ccc(N5C[C@H](CS(C)(=O)=O)[C@H]5C)c4cn3)n2)cn1

>  <pIC50>
7.31

$$$$

Data request: Can you look up pIC50 on Ba/F3 EGFR Del19/C797S cells for `CC(C)c1ccc(N2CC(N3CCCS3(=O)=O)C2)c2cnc(Nc3ccnc(-c4cn(C)nc4Cl)n3)cc12` ?
Data returned: 7.68

Data request: Can you look up pIC50 on Ba/F3 EGFR Del19/C797S cells for `Cc1nn(C)c(F)c1-c1nccc(Nc2cc3c(C(C)C)ccc(N4C[C@H](CS(C)(=O)=O)[C@H]4C)c3cn2)n1` ?
Data returned: 7.92

Data request: Can you look up pIC50 on Ba/F3 EGFR Del19/C797S cells for `CC(C)c1ccc(N2C[C@H](CS(C)(=O)=O)[C@H]2C)c2cnc(Nc3ccnc(-c4cn(C)nc4F)n3)cc12` ?
Data returned: 7.40

Data request: Can you look up pIC50 on Ba/F3 EGFR Del19/C797S cells for `CC(C)c1ccc(N2C[C@H](CS(C)(=O)=O)[C@H]2C)c2cnc(Nc3ccnc(-c4cnn(C5(CC#N)CC5)c4)n3)cc12` ?
Data returned: 7.29

Data request: Can you look up pIC50 on Ba/F3 EGFR Del19/C797S cells for `CC(C)c1ccc(N2C[C@H](CS(C)(=O)=O)[C@H]2C)c2cnc(Nc3ccnc(-c4cn(C)nc4C#N)n3)cc12` ?
Data returned: 7.60

Data request: Can you look up pIC50 on Ba/F3 EGFR Del19/C797S cells for `CC(C)c1ccc(N2CC(C[N+](=O)[O-])C2)c2cnc(Nc3ccnc(-c4cn(C)nc4Cl)n3)cc12` ?
Data returned: 7.55
